# Measured Target: Protein phosphatase methylesterase 1 (Homo sapiens)
# Test Summary: PME-1 inhibitor activity retest, confirmation, biochemical, fluorescence polarization, FP-Rh probe, triplicate (AID 2171);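 also: 0% = enzyme with DMSO and 100% = wells lacking PME-1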
# Condition Context: recombinant PME-1, FP-Rh probe fluorescence polarization; at 5.9 µM
The source made the active and inactive calls.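 The calls were made as follows: active = inhibition above the hit cutoff set in the earlier primary screen (cut at about 27% in these data); inactive = the rest.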
// one of 1 = active, 0 = inactive, no free text

Cc1cc(N/N=C/c2ccc(O)c(C)c2O)nc(-c2ccccc2O)n1; 1

Problem: Would you mind telling me which call this test gave O=[N+]([O-])c1ccc(C2Nc3cccc4cccc(c34)N2)cc1 ?
Solution: 1

Problem: What call does the record list for CCN(CC(=O)Nc1c(C(=O)OC)[nH]c2ccc(Cl)cc12)c1ccc2c(c1)OCO2 ?
Solution: 0

Problem: Would you mind telling me which call this test gave COc1ccc(/C=c2\s/c(=C/C(=O)c3ccc(C)cc3)[nH]c2=O)c(OC)c1 ?
Solution: 0

Problem: Each molecule tested received a call. Report the one for COc1cc2c(c(OC)c1OC)-c1ccc(NC(=O)c3ccc(F)cc3)c(=O)cc1[C@@H](NC(C)=O)CC2 .
Solution: 0

* * *

Measured inhibition by item
# Test Summary: StAR promoter reporter inhibitors, counter-screen for LRH-1 inverse agonist project, cell-based, luminescence, high throughput (AID 651611)
# Condition Context: StAR promoter luciferase reporter counterscreen, at 3.6 µM, active compounds read high
# unit: % | format: bare number

Recorded inhibition, per entry:
CCC1C/C(=C\c2cccnc2)C(=O)/C(=C/c2cccnc2)C1 (stereo not given); 60.2
CCC(=O)N1CCN(c2ccc(NC(=O)c3ccc([N+](=O)[O-])o3)cc2)CC1; 17.6

Problem: Entry O=C(Cn1nnc2ccccc2c1=O)Nc1ccc2c(c1)CCC2 has what inhibition?
Solution: -34.8

Problem: Given Nc1ccc(Oc2ccccc2-c2ccccc2)cc1 , state its recorded inhibition.
Solution: 30.3

Problem: Could you tell me which inhibition is on file for CCCCNC(=O)COC(=O)c1c2c(nc3ccccc13)/C(=C/c1cccs1)CC2 ?
Solution: 11.2

Problem: Data request, read-out inhibition, for CCC(=O)N1CCN(c2ccc(Cl)cc2NC(=O)c2ccc([N+](=O)[O-])o2)CC1
Solution: 22.8

Problem: Find the recorded inhibition belonging to O=C(Nc1ccc(N2CCN(C(=O)c3ccccc3)CC2)cc1)c1ccc2c(c1)OCO2 and report it.
Solution: 50.2

Problem: Recorded inhibition of CCOc1ccc(NC(=O)COC(=O)C2COc3ccccc3O2)cc1 (stereo not given) , please.
Solution: -6.6

Problem: For the compound O=C(Nc1ccc(C(=O)N2CCOCC2)cc1)c1cccc([N+](=O)[O-])c1 , what inhibition is on record?
Solution: 1.39

Problem: Looking for the measured inhibition of CCOc1ccc(CCNC(=O)COC(=O)/C=C/c2ccc(OC(F)F)c(OC)c2)cc1OCC , can you help?
Solution: 12.5

Problem: # get_value(readout='inhibition', item= O=C(N/N=C/c1ccc([N+](=O)[O-])s1)c1ccccc1Br )
Solution: 40.1

Problem: Name the recorded inhibition for CC(=O)Nc1ncc(Cc2cc(Cl)ccc2Cl)s1 .
Solution: 11.1

Problem: Please look up its inhibition: S=C(NCCCc1cnc[nH]1)NCCCN(Cc1ccc(Cl)cc1)c1ccc(Br)cn1
Solution: 91.2

Problem: Endpoint output: inhibition of COc1ccc(CNC(=O)c2cccc3c(-c4cnn(C)c4)coc23)cc1OC . Value?
Solution: 12.8

* * *

# Measured Target: Nuclear receptor subfamily 5 group A member 2 (Homo sapiens)
# Test Summary: LRH-1 (NR5A2) inverse agonists, retest, confirmation, cell-based, luminescence (AID 651613);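 also: HEK293T cells co-transfected with LRH-1 and StAR promoter luciferase reporter; 0% = vehicle wells and 100% = parental cells lacking receptor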
# Condition Context: cell-based LRH-1 luciferase reporter, inverse agonism; at 3.6 µM
Activity calls are given as the source filed them. Cut-off read from the data, not from the text of the source: active = inhibition above about 42%; inactive = the rest.
Give one outcome, nothing more. List: YES (active), NO (inactive)

Illustrative cases are given below, each with its answer.
Cn1cc(C(=O)c2ccc(Cl)cc2)cc1-c1nc2ccccc2n1C; YES
Cc1cc(C)c2c(N)c(C(=O)Nc3ncc(C)s3)sc2n1; NO

Problem: Which outcome was entered for the molecule Cc1cc2oc(=O)cc(-c3ccccc3)c2c(C)c1-c1ccc(CO)cc1 in this test?
Solution: YES

Problem: Identify the outcome logged in this assay for the molecule shown: CC(=O)c1ccc(NC(=O)CSc2nc3[nH]ncc3c(=O)[nH]2)cc1
Solution: YES

Problem: Recorded test outcome, item CC1=C(CO)C(=O)OC([C@@H](C)C2CC[C@H]3C4C[C@H]5O[C@]56[C@@H](O)C=CC(=O)[C@]6(C)C4CC[C@]23C)C1 (stereo partly specified)
Solution: YES

Problem: Each molecule tested received a call. Report the one for COc1cccc(/C=N/NC(=O)c2ccc(-c3ccccc3)cc2)c1O .
Solution: YES

Problem: Please indicate how the test categorized O=C(CSc1nc2ccccc2c(=O)n1-c1ccc(Cl)c(Cl)c1)Nc1ccc2c(c1)CCC2 .
Solution: YES

Problem: Hi, do you know how CCC(C(=O)NCc1ccccc1)n1c(CSCCOc2ccccc2)nc2ccccc21 (stereo unspecified) came out in this test?
Solution: NO

Problem: # fetch the recorded call for COc1cc(/C=N/Nc2snc(SC)c2C#N)ccc1O here
Solution: NO

* * *

# Tested on: transactivating tegument protein VP16 (Human herpesvirus 1), Gal4-VP16 luciferase reporter
# Test Summary: VP16 transactivation inhibitors, counter-screen for SRC3 inhibitor project, cell-based, luminescence, high throughput (AID 588794)
# Condition Context: mammalian cells, VP16-driven luciferase reporter luminescence; at 3.6 µM; active compounds read high
The threshold is inclusive: inhibition of exactly 30% counts as true (1); values below receive false (0).

Some solved cases for reference:
CCOc1ccc(/C=C2\SC(=S)N(CCC(=O)O)C2=O)cc1; false (0)
Cc1oc2c(F)c(F)c(F)c(F)c2c1S(=O)(=O)Nc1cccc(C(F)(F)F)c1; false (0)
CCN(C(=O)COC(=O)c1ccccc1Cc1ccccc1)c1c(N)n(Cc2ccccc2)c(=O)[nH]c1=O; false (0)
Cc1ccc(S(=O)(=O)/C(=C/Cl)NC(=O)c2ccccc2)cc1; false (0)

In the following, a different compound is considered.
Problem: Hello, I need to know if COc1ccc(C(=O)N/N=C/c2cc(Br)ccc2O)cc1OC has measured inhibition not below 30%. Thanks!
Solution: true (1)

* * *

# Measured Target: Nuclear receptor coactivator 3 (Homo sapiens) (UniProt Q9Y6Q9)
# Sequence (Q9Y6Q9 whole entry, looked up): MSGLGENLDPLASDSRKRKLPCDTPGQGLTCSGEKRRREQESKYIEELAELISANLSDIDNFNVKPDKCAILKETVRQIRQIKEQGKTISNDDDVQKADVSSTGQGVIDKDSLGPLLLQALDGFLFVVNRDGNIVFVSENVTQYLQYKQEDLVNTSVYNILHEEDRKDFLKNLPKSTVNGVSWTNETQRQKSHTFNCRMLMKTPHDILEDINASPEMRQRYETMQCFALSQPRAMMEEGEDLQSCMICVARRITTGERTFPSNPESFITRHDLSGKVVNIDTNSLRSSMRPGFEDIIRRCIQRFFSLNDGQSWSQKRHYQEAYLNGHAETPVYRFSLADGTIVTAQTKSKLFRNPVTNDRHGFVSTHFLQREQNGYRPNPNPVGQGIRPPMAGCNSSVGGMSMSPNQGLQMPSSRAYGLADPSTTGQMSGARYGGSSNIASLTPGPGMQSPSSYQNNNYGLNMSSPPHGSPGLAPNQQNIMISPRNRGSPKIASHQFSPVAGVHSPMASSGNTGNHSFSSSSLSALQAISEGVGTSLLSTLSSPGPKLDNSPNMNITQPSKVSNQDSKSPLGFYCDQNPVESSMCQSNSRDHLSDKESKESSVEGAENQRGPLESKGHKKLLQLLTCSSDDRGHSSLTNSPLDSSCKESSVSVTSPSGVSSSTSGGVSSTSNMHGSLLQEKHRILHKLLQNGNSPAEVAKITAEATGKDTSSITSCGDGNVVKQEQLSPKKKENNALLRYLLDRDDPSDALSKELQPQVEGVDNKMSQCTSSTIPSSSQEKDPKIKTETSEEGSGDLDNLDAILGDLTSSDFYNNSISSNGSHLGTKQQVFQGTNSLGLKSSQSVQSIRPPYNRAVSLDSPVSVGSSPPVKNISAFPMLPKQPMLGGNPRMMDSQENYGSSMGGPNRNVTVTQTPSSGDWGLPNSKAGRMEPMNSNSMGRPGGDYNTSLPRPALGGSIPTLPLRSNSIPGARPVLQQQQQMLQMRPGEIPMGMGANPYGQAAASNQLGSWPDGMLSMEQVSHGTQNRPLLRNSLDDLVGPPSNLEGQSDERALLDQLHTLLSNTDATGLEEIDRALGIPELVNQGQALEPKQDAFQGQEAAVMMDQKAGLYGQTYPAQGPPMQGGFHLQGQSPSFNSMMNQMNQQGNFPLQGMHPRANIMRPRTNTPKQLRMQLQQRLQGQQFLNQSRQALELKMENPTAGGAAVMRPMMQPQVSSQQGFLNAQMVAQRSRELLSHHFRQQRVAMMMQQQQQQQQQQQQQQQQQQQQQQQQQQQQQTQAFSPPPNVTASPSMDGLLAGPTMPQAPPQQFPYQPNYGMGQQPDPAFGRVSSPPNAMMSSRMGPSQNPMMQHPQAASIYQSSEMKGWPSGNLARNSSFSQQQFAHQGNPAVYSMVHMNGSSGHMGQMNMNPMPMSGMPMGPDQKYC
# Test Summary: SRC3 coactivator transcriptional activity inhibitors, confirmation, cell-based, luminescence, quadruplicate (AID 588792);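 also: 0% = DMSO treated cells and 100% = gossypol at 36 µM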
# Condition Context: HEK293 GAL4-SRC3 luciferase reporter, at 3.6 µM
Active and inactive are the calls of the source.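 The calls were made as follows: active = mean inhibition over 43.08%, the solvent-only control mean plus 3 SD; inactive = the rest.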
Please reply with one of these outcomes: y (active), n (inactive)

Recorded results for 8 compounds are shown here.
CN(Cc1c(C(=O)N/N=C/c2cccc(F)c2)nnn1-c1nonc1N)C1CCCCC1; n
Cc1cccc(NC(=O)c2cc(Cl)ccc2[N+](=O)[O-])c1; n
Cc1nn(-c2nc3ccccc3[nH]2)c(=O)c2ccccc12; y
CCOC(=O)NNC(=O)CCn1c2c(c3ccccc31)CCCC2; y
CC1CCc2nc(N)c(C#N)c(-c3cccnc3)c2C1 (centres undefined); y
CCN(CC)S(=O)(=O)c1cc(NC(=O)C(C)OC(=O)c2[nH]c(C)c(C(C)=O)c2C)ccc1C (centres undefined); n
Nc1[nH]nc2nc(-c3ccccc3)[nH]c(=O)c12; n
COc1ccccc1-c1cc2nc(-c3ccccc3)cc(N3CCN(C(=O)c4ccco4)CC3)n2n1; n

Problem: Which outcome was assigned to CCOc1ccc(-c2c[n+]3c(n2-c2ccccc2)CCCCC3)cc1 in this test?
Solution: n

Problem: Lab log entry: CCCc1[nH]nc2c1C(c1ccc(Br)s1)C(C#N)=C(N)O2 (centres undefined) — outcome as called in the assay?
Solution: n

Problem: Test call for this compound, please: COc1cccc(F)c1C(C[N+](=O)[O-])c1c(N)n(C)c(=O)n(C)c1=O (centres undefined)
Solution: n

Problem: Per the assay record, what outcome was assigned to COc1ccc(N/N=C/c2c(C(=O)O)ccc3ccccc23)cc1 ?
Solution: n

Problem: Tell me the assay call for CC(=O)c1cn(CC(=O)Nc2ccc(C)cc2C)c2ccccc12 please.
Solution: n

Problem: State the result this test recorded for Cc1ccc2oc(/N=C(\N)NC(=O)C(C)(C)C)nc2c1 .
Solution: y

* * *

# Test Summary: VP16 transactivation inhibitors, counter-screen for SRC1 inhibitor project, cell-based, luminescence, high throughput (AID 588824)
# Condition Context: cell-based VP16 transactivation luciferase luminescence; at 3.6 µM
The source made the active and inactive calls. No stated cut-off is given here; in the data, active means inhibition above about 25%; inactive means the rest.
Assign a class; possible classes are active, inactive

O=C(Nc1ccc2c(c1)OCCO2)C(c1cc2ccccc2o1)N1CCN(C/C=C/c2ccccc2)CC1 (stereo not given); inactive

Problem: Could you kindly confirm the outcome this assay logged for O=C(Nc1ccc(OCc2ccccc2Cl)cc1)c1cccnc1 ?
Solution: inactive

Problem: Called result for CC1=NN(c2nc3ccccc3[nH]2)C(=O)C1Cc1ccccc1 (stereo not given)
Solution: active

Problem: Tell me the recorded outcome of this test for COCCn1c(C)cc(/C=C2/NC(=O)N(c3cccc(Cl)c3)C2=O)c1C .
Solution: inactive

Problem: Please share the test call associated with COc1cc(C=NO)nc(-c2ccccn2)c1 .
Solution: active
